Here the recorded IC50 is given for each entry.
# Tested on: human lung cancer strain NCI-H441
# Method Notes: cells
# Reported Conditions: NCI-H441, 96 h, read-out: NCI-H441 IC50 (nM)
The reply should read as a number followed by its unit.

CCO[C@@H]1C[C@H]2C(=O)NC3(CCC3)C(=O)N(C)[C@@H](C3CCCC3)C(=O)N(C)[C@H](C(=O)N3CCCC3)CC(=O)N(C)[C@@H](CC3CCCCC3)C(=O)N[C@@H]([C@@H](C)CC)C(=O)N(C)CC(=O)N(C)[C@H]3C/C=C\CCN(C3=O)[C@@H](Cc3ccc(C(F)(F)F)cc3)C(=O)N(C)CC(=O)N[C@@H](CCc3cc(F)c(C(F)(F)F)c(F)c3)C(=O)N2C1 [PP1419] = 40.4 nM
CCO[C@@H]1C[C@H]2C(=O)NC3(CCC3)C(=O)N(C)[C@@H](C3CCCC3)C(=O)N(C)[C@H](C(=O)N(C)C)CC(=O)N(C)[C@@H](CC3CCCC3)C(=O)N[C@@H]([C@@H](C)CC)C(=O)N(C)CC(=O)N(C)[C@H]3C/C=C\CCN(C3=O)[C@@H](CC3CCC(F)(F)CC3)C(=O)N(C)CC(=O)N[C@@H](CCc3cc(F)c(C(F)(F)F)c(F)c3)C(=O)N2C1 [PP1458] = 18.2 nM

Per the record, CC[C@H](C)[C@@H]1NC(=O)[C@H](CC2CCCC2)N(C)C(=O)C[C@@H](C(=O)N(C)C)N(C)C(=O)[C@H](C2CCCC2)N(C)C(=O)C2(CCC2)NC(=O)[C@@H]2C[C@@H](F)CN2C(=O)[C@H](CCc2cc(F)c(C(F)(F)F)c(F)c2)NC(=O)CN(C)C(=O)[C@H](Cc2ccc(C(F)(F)F)cc2)N2CC/C=C\C[C@@H](C2=O)N(C)C(=O)CN(C)C1=O [PP1502] has IC50 of 2 nM

Per the record, CCO[C@@H]1C[C@H]2C(=O)NC3(CC(C)(C)C3)C(=O)N(C)[C@@H](C3CCCC3)C(=O)N3CCC[C@@H]3CC(=O)N(C)[C@@H](CC)C(=O)N[C@@H]([C@@H](C)CC)C(=O)N(C)CC(=O)N(C)[C@H]3C/C=C\CCN(C3=O)[C@@H](Cc3ccc(C(F)(F)F)cc3)C(=O)N(C)CC(=O)N[C@@H](CCc3cc(F)c(C(F)(F)F)c(F)c3)C(=O)N2C1 [PP1606] has IC50 of 12.6 nM

Per the record, CCO[C@@H]1C[C@H]2C(=O)NC3(CCC3)C(=O)N(C)[C@@H](C(CC)CC)C(=O)N(C)[C@H](C(=O)N(C)C)CC(=O)N(C)[C@@H](CC3CC3)C(=O)N[C@@H]([C@@H](C)CC)C(=O)N(C)CC(=O)N(C)[C@H]3C/C=C\CCN(C3=O)[C@@H](Cc3ccc(C(F)(F)F)cc3)C(=O)N(C)CC(=O)N[C@@H](CCc3cc(F)c(C(F)(F)F)c(F)c3)C(=O)N2C1 [PP1203] has IC50 of 20.8 nM

Per the record, CCO[C@@H]1C[C@H]2C(=O)NC3(CCC3)C(=O)N(C)[C@@H](C3CCCC3)C(=O)N(C)[C@H](C(=O)N3CCOCC3)CC(=O)N(C)[C@@H](CC(C)C)C(=O)N[C@@H]([C@@H](C)CC)C(=O)N3CC[C@H]3C(=O)N(C)[C@H]3CC[C@@H](C)CN(C3=O)[C@@H](Cc3ccc(C(F)(F)F)cc3)C(=O)N(C)CC(=O)N[C@@H](CCc3cc(F)c(C(F)(F)F)c(F)c3)C(=O)N2C1 [PP1373] has IC50 of 12.2 nM

###

# Target Under Test: GDP-bound KRAS wild-type protein (Homo sapiens)
# Method Notes: Binding to KRAS by surface plasmon resonance (SPR), Single Cycle Kinetics
# Reported Conditions: SPR, Single Cycle Kinetics; GDP-bound KRAS wild-type protein
Readout Name: pKd
// returns pKd (minus log10 of molar concentration), number only

CCO[C@@H]1C[C@H]2C(=O)NC3(CCC3)C(=O)N(C)[C@@H](C3CCCC3)C(=O)N(C)[C@H](C(=O)N(C)C)CC(=O)N(C)[C@@H](CC3CC3)C(=O)N[C@@H]([C@@H](C)CC)C(=O)N(C)CC(=O)N(C)[C@H]3C/C=C\CCN(C3=O)[C@@H](Cc3ccc(C(F)(F)F)cc3)C(=O)N(C)CC(=O)N[C@@H](CCc3ccc(C(F)(F)F)c(OC)c3)C(=O)N2C1 [PP1247] = 10.34
CC[C@H](C)[C@@H]1NC(=O)[C@H](CC2CC2)N(C)C(=O)C[C@@H](C(=O)N(C)C)N(C)C(=O)[C@H](C2CCCC2)N(C)C(=O)C2(CCCC2)NC(=O)[C@@H]2C[C@H](C)CN2C(=O)[C@H](CCc2cc(F)c(C(F)(F)F)c(F)c2)NC(=O)CN(C)C(=O)[C@H](Cc2ccc(C(F)(F)F)cc2)N2CC/C=C\C[C@@H](C2=O)N(C)C(=O)CN(C)C1=O [PP1511] = 10.00
CCO[C@@H]1C[C@H]2C(=O)NC3(CCC3)C(=O)N(C)[C@@H](C3CCCC3)C(=O)N(C)[C@H](C(=O)N(C)C)CC(=O)N(C)[C@@H](CC(C)C)C(=O)N[C@@H]([C@@H](C)CC)C(=O)N(C)CC(=O)N(C)[C@H]3C/C=C\CCN(C3=O)[C@@H](Cc3ccc(F)cc3)C(=O)N(C)CC(=O)N[C@@H](CCc3cc(F)c(C(F)(F)F)c(F)c3)C(=O)N2C1 [PP1488] = 10.09
CCC[C@H]1C(=O)N[C@@H]([C@@H](C)CC)C(=O)N(C)CC(=O)N(C)[C@H]2C/C=C\CCN(C2=O)[C@@H](Cc2ccc(C(F)(F)F)cc2)C(=O)N(C)CC(=O)N[C@@H](CCc2cc(F)c(C(F)(F)F)c(F)c2)C(=O)N2C[C@H](OCC)C[C@H]2C(=O)NC2(CCC2)C(=O)N(C)[C@@H](C2CCCC2)C(=O)N(C)[C@H](C(=O)N2CCCC2)CC(=O)N1C [PP1299] = 9.85
CCO[C@@H]1C[C@H]2C(=O)NC3(CCCC3)C(=O)N(C)[C@@H](C3CCCC3)C(=O)N(C)[C@H](C(=O)N(C)C)CC(=O)N(C)[C@@H](CC)C(=O)N[C@@H]([C@@H](C)CC)C(=O)N(C)CC(=O)N(C)[C@H]3C/C=C\CCN(C3=O)[C@@H](Cc3ccc(C(F)(F)F)cc3)C(=O)N(C)CC(=O)N[C@@H](CCc3cc(F)c(C(F)(F)F)c(F)c3)C(=O)N2C1 [PP1276] = 10.18
CCO[C@@H]1C[C@H]2C(=O)NC3(CCC3)C(=O)N(C)[C@@H](C3CCCC3)C(=O)N(CC)[C@H](C(=O)N(C)C)CC(=O)N(C)[C@@H](CC)C(=O)N[C@@H]([C@@H](C)CC)C(=O)N(C)CC(=O)N(C)[C@H]3CCCCCN(C3=O)[C@@H](Cc3ccc(F)cc3)C(=O)N(C)CC(=O)N[C@@H](CCc3cc(F)c(C(F)(F)F)c(F)c3)C(=O)N2C1 [PP0904] = 9.10

Per the record, CCO[C@@H]1C[C@H]2C(=O)NC3(CCCC3)C(=O)N(C)[C@@H](C3CCCC3)C(=O)N(C)[C@H](C(=O)N(C)C)CC(=O)N(C)[C@@H](C)C(=O)N[C@@H]([C@@H](C)CC)C(=O)N(C)CC(=O)N(C)[C@H]3C/C=C\CCN(C3=O)[C@@H](CC3CCC(F)(F)CC3)C(=O)N(C)CC(=O)N[C@@H](CCc3cc(F)c(C(F)(F)F)c(F)c3)C(=O)N2C1 [PP1456] has pKd of 9.92

Per the record, CCO[C@@H]1C[C@H]2C(=O)NC3(CCC3)C(=O)N(C)[C@@H](C3CCCC3)C(=O)N(C)[C@H](C(=O)N(C)C)CC(=O)N(C)[C@@H](CC3CCCC3)C(=O)N[C@@H]([C@@H](C)CC)C(=O)N(C)CC(=O)N(C)[C@H]3C/C=C\CCN(C3=O)[C@@H](Cc3ccc(C(F)(F)F)cc3)C(=O)N(C)CC(=O)N[C@@H](CCc3ccc4sccc4c3)C(=O)N2C1 [PP1261] has pKd of 9.36

Per the record, CCOC[C@H]1C(=O)N[C@@H]([C@@H](C)CC)C(=O)N(C)CC(=O)N(C)[C@H]2C/C=C\CCN(C2=O)[C@@H](Cc2ccc(C(F)(F)F)cc2)C(=O)N(C)CC(=O)N[C@@H](CCc2cc(F)c(C(F)(F)F)c(F)c2)C(=O)N2C[C@H](OCC)C[C@H]2C(=O)NC2(CCC2)C(=O)N(C)[C@@H](C2CCCC2)C(=O)N(C)[C@H](C(=O)N(C)C)CC(=O)N1C [PP1266] has pKd of 10.35

Per the record, CCCC[C@H]1C(=O)N[C@@H]([C@@H](C)CC)C(=O)N(C)CC(=O)N(C)[C@H]2C/C=C\CCN(C2=O)[C@@H](Cc2ccc(C(F)(F)F)cc2)C(=O)N(C)CC(=O)N[C@@H](CCc2cc(F)c(C(F)(F)F)c(F)c2)C(=O)N2C[C@H](OCC)C[C@H]2C(=O)NC2(CCCC2)C(=O)N(C)[C@@H](C2CCCC2)C(=O)N(C)[C@H](C(=O)N(C)C)CC(=O)N1C [PP1397] has pKd of 10.14

Per the record, CCO[C@@H]1C[C@H]2C(=O)NC3(CCC3)C(=O)N(C)[C@@H](C3CCCC3)C(=O)N(C)[C@H](C(=O)N3CCCC3)CC(=O)N(C)[C@@H](CC)C(=O)N[C@@H]([C@@H](C)CC)C(=O)N(C)CC(=O)N(C)[C@H]3C/C=C\CCN(C3=O)[C@@H](CC3CCC(F)(F)CC3)C(=O)N(C)CC(=O)N[C@@H](CCc3cc(F)c(C(F)(F)F)c(F)c3)C(=O)N2C1 [PP1442] has pKd of 9.89
